test system: intestinal alkaline phosphatase [Mus musculus]; test: mouse intestinal phosphatase enzyme activation – biochemical, luminescence, uHTS, primary screen (AID 2805); details: muIAP, CDP-Star luminescence, 30 min; at 10 µM; hits give high values; 1 = vehicle-only enzyme signal, 0 = enzyme-free wells
Among all 330,000 compounds or so, about 780 (0.24%) were called active. For the sample, actives were picked, then their nearest neighbours and some compounds at random.
OBSERVABLE: activation factor
// keep it numeric: no unit symbol after the value

// below: answered compounds
compound=CCN(CC)c1nc(-c2ccccc2)cc(C(F)(F)F)c1C#N measurement_target="intestinal alkaline phosphatase [Mus musculus]" quantitative_result=0.949
compound=COc1ccccc1-c1nn(Cc2ccccc2)cc1C(=O)N1CCN(c2ncccn2)CC1 measurement_target="intestinal alkaline phosphatase [Mus musculus]" quantitative_result=0.95
compound="O=C1C2CCCN2C(=O)N1CCCCN1CCN(c2cccc(C(F)(F)F)c2)CC1 (stereo not given)" measurement_target="intestinal alkaline phosphatase [Mus musculus]" quantitative_result=0.942
compound="C=CCOc1cccc(C2NC(=O)c3ccccc3O2)c1 (stereo not given)" measurement_target="intestinal alkaline phosphatase [Mus musculus]" quantitative_result=1.01

Turning to the following compound.
[Q] Consider the compound N#CC1=C(N)Oc2[nH]c(=S)[nH]c(=O)c2C12C(=O)Nc1ccccc12 (stereo not given) . State its measured activation factor.
[A] 1

---

tested on: intestinal alkaline phosphatase [Mus musculus]; assay: mouse intestinal phosphatase enzyme activation – biochemical, luminescence, uHTS, primary screen (AID 2805); settings: muIAP, CDP-Star luminescence, 30 min; at 10 µM; hits give high values; 1 = vehicle-only enzyme signal, 0 = enzyme-free wells
Out of some 330,000 compounds screened, about 780 (0.24%) were called active. The sample as a whole holds a higher share of actives than the screen did.
activation factor below 0.9 gives NO; activation factor at or above it gives YES.

Reference set (5 entries):
molecule=CN(C)S(=O)(=O)c1cccc(NC(=S)N/N=C/C(=O)c2ccccc2)c1 category_label=NO
molecule="O=C1CCC(C(=O)N2CCC(O)(c3ccccc3)CC2)CN1CCc1ccccc1 (stereo unspecified)" category_label=YES
molecule=O=C(CN1C(=O)NC2(CCCCC2)C1=O)N1CCN(C(=O)c2cccs2)CC1 category_label=YES
molecule=O=C(NCCOc1ccccc1F)Nc1ccc(Br)cc1 category_label=YES
molecule=O=C(NCCOc1ccccc1Cl)C(=O)Nc1ccccc1 category_label=YES

Okay, now this molecule:
[Q] activation factor >= 0.9 for `COC(=O)Cc1ccc(NC(=S)NCc2ccc(Cl)cc2)cc1` ?
[A] YES

---

tested on: intestinal alkaline phosphatase [Mus musculus]; assay: mouse intestinal phosphatase enzyme activation – biochemical, luminescence, uHTS, primary screen (AID 2805); conditions: muIAP, CDP-Star luminescence, 30 min; at 10 µM; hits give high values; 1 = vehicle-only enzyme signal, 0 = enzyme-free wells
Hit rate of the full screen: of about 330,000 compounds, about 780 (0.24%) were called active. What follows is part of a selection rich in actives, with near analogues and random picks from the rest.
Quick reference for activation factor among some molecules
// keep it numeric: no unit symbol after the value

molecule=FC(F)(F)Oc1ccc(NC(=S)NCc2ccccc2)cc1 measurement_target="intestinal alkaline phosphatase [Mus musculus]" quantitative_result=1.66

[Q] Consider the molecule `Fc1ccccc1CNC(=S)Nc1ccc(Cl)cc1` . State its measured activation factor.
[A] 2.42

[Q] Consider the molecule COc1ccc(C(C(=O)NC2CCCC2)N(CCCO)C(=O)Cn2nnc(-c3ccc(C)o3)n2)cc1 (stereo not drawn) . State its measured activation factor.
[A] 1.05

---

tested on: intestinal alkaline phosphatase [Mus musculus]; assay: mouse intestinal phosphatase enzyme activation – biochemical, luminescence, uHTS, primary screen (AID 2805); conditions: muIAP, CDP-Star luminescence, 30 min; at 10 µM; hits give high values; 1 = vehicle-only enzyme signal, 0 = enzyme-free wells
In all, about 330,000 compounds went through this assay and about 780 (0.24%) were called active. The entries come from a sample that favours actives as a whole.
OBSERVABLE: activation factor
// keep it numeric: no unit symbol after the value

compound=C#CCOCCOCCOCCNc1nc(N2CCN(C(=O)CCCCCCCCCCNC(=O)[C@H](CCCCN)n3cc(C)nn3)CC2)nc(N2CCN(C(=O)CCCCCCCCCCNC(=O)[C@H](CO)n3cc(CCCSC)nn3)CC2)n1 measurement_target="intestinal alkaline phosphatase [Mus musculus]" observable="activation factor" quantitative_result=1.29

[Q] Consider the compound `Cc1ccc(CN(C)Cc2cc(=O)oc3cc(C)c(Cl)cc23)cc1` . State its measured activation factor.
[A] 0.989

[Q] Consider the compound `CCc1ccccc1N1CN(Cc2ccco2)CNC1=S` . State its measured activation factor.
[A] 0.992

[Q] Consider the compound `Cc1ccc(NC(=S)NCc2ccccc2Cl)c(C)c1` . State its measured activation factor.
[A] 1.27

[Q] Consider the compound `Cc1c(C(C)(C)O)[nH]c2ccc(C#N)cc12` . State its measured activation factor.
[A] 1.11

[Q] Consider the compound N#CCCCn1c(O)c(N=NC(=O)C(O)c2ccccc2)c2ccccc21 (configuration not stated) . State its measured activation factor.
[A] 0.987

[Q] Consider the compound `Cc1cc(C)c(S(=O)(=O)c2ccccc2)c(OC(=O)c2c(F)cccc2Cl)n1` . State its measured activation factor.
[A] 0.919

[Q] Consider the compound `Cc1ccc(C)c(CN2CCC(CNC(=O)Nc3ccc(C)c(F)c3)CC2)c1` . State its measured activation factor.
[A] 4.63

[Q] Consider the compound `S=C(NC1CCCCC1)NN1CCOCC1` . State its measured activation factor.
[A] 0.975

[Q] Consider the compound `CCN(C(=O)Cc1nc(N)n[nH]1)C1(C(=O)Nc2ccccc2)CCCCC1` . State its measured activation factor.
[A] 1

[Q] Consider the compound `O=C(CN1CCN(Cc2ccccc2)CC1)Nc1ccc(F)c(F)c1` . State its measured activation factor.
[A] 1.1

---

system: intestinal alkaline phosphatase [Mus musculus]; assay: mouse intestinal phosphatase enzyme activation – biochemical, luminescence, uHTS, primary screen (AID 2805); conditions: muIAP, CDP-Star luminescence, 30 min; at 10 µM; hits give high values; 1 = vehicle-only enzyme signal, 0 = enzyme-free wells
The campaign covered roughly 330,000 compounds. About 780 (0.24%) were called active. Many of the other results were omitted from the sample, so actives are more common in it than they were.
Quick reference for activation factor among some compounds

// below: answered compounds
compound="CCc1nn(CCCC(=O)NC(C)c2ccccc2)c(=O)c2cc3occc3n12 (configuration not stated)" result="0.908 (inactive)"
compound=S=C(NCCCc1ccccc1)Nc1ccc(Br)cc1 result="2.09 (active)"
compound=Cc1c(Cl)cccc1NC(=O)Nc1ccc(C(=O)N2CCCC2)cc1 result="2 (active)"
compound=O=P(O)(CN1CCCCCC1)C1Cc2ccccc2C1 result="1.05 (inactive)"
compound=CC(C)S(=O)(=O)c1csc(NC(=O)Nc2ccc(Cl)cc2)c1Cl result="2.9 (active)"
compound="S=C(NNC(=S)NC1CC2CCC1C2)NC1CC2C=CC1C2 (configuration not stated)" result="0.928 (inactive)"

[Q] Consider the compound `CCNS(=O)(=O)c1ccc(NC(=O)Nc2cccc(C(F)(F)F)c2)cc1` . State its measured activation factor.
[A] 2.22 (active)

[Q] Consider the compound `O=C(Nc1ccc(C(=O)N2CCOCC2)cc1)Nc1cccc(C(F)(F)F)c1` . State its measured activation factor.
[A] 1.56 (inactive)

[Q] Consider the compound `Cc1cc(C)cc(NC(=O)NC2CCN(CC(=O)Nc3cccc(Cl)c3C)CC2)c1` . State its measured activation factor.
[A] 5.45 (active)

[Q] Consider the compound `COc1ccc(NC(=O)N(C)C[C@H]2Oc3ccc(NC(=O)C4CC4)cc3C(=O)N([C@H](C)CO)C[C@@H]2C)cc1` . State its measured activation factor.
[A] 1.05 (inactive)

[Q] Consider the compound O=C(Nc1cccc(F)c1)NC1CCCc2ccccc21 (configuration not stated) . State its measured activation factor.
[A] 0.963 (inactive)

---

tested on: intestinal alkaline phosphatase [Mus musculus]; assay: mouse intestinal phosphatase enzyme activation – biochemical, luminescence, uHTS, primary screen (AID 2805); settings: muIAP, CDP-Star luminescence, 30 min; at 10 µM; hits give high values; 1 = vehicle-only enzyme signal, 0 = enzyme-free wells
Out of some 330,000 compounds screened, about 780 (0.24%) were called active. The sample as a whole holds a higher share of actives than the screen did.
OBSERVABLE: activation factor
// keep it numeric: no unit symbol after the value

[Q] Consider the molecule `O=C(C1=C[C@H](c2ccc(C(F)(F)F)cc2)C[C@H](OCc2ccc(CO)cc2)O1)N1CCN(Cc2ccccc2)CC1` . State its measured activation factor.
[A] 1.05

[Q] Consider the molecule `COc1ccc(CN2CCC(n3nccc3NC(=O)CCCc3ccccc3)CC2)cc1C` . State its measured activation factor.
[A] 2.47

[Q] Consider the molecule `N=c1c2c(-c3ccccc3)c(-c3ccccc3)n(Cc3ccccc3)c2ncn1CCCO` . State its measured activation factor.
[A] 0.982

[Q] Consider the molecule `COc1cc(CN2CCC(n3nccc3NC(=O)CCCc3ccccc3)CC2)ccc1O` . State its measured activation factor.
[A] 1.47

[Q] Consider the molecule COC(=O)c1ccc(NC(=O)C(C)N2C(=O)c3ccccc3C2=O)cc1 (stereo not given) . State its measured activation factor.
[A] 0.997
